Biological target: T1, Chryseobacterium sp-62563 deamidase polypeptide (second polypeptide, deamidase domain), wildtype (Chryseobacterium sp-62563)
T1 sequence: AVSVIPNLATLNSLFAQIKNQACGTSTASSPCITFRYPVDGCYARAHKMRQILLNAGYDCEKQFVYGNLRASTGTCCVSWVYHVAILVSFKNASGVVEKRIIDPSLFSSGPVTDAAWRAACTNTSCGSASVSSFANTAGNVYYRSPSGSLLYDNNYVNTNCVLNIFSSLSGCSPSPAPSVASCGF
Test: cell-based or functional assay
measurement label: Leakage activity (%)

Below, 2 binders whose answers are already recorded.
binder	Leakage activity, %
Chryseobacterium sp-62563 propeptide Y45A (protein) NQDPNLVAKESNETAMKDFGKTVPVGIEKEDGKFKISFMVTAQPAEIKDSKENAAYISMIKTAVENETPIHVFLKANTNEIAKVDKATDDDIRYFKSVFTKEVKEENRK	0
Chryseobacterium sp-62563 propeptide K109C (protein) NQDPNLVAKESNETAMKDFGKTVPVGIEKEDGKFKISFMVTAQPYEIKDSKENAAYISMIKTAVENETPIHVFLKANTNEIAKVDKATDDDIRYFKSVFTKEVKEENRC	0

I = Chryseobacterium sp-62563 propeptide Y94E (protein) NQDPNLVAKESNETAMKDFGKTVPVGIEKEDGKFKISFMVTAQPYEIKDSKENAAYISMIKTAVENETPIHVFLKANTNEIAKVDKATDDDIREFKSVFTKEVKEENRK
II = Chryseobacterium sp-62563 propeptide F99K (protein) NQDPNLVAKESNETAMKDFGKTVPVGIEKEDGKFKISFMVTAQPYEIKDSKENAAYISMIKTAVENETPIHVFLKANTNEIAKVDKATDDDIRYFKSVKTKEVKEENRK
query: Sorting by Leakage activity in descending order, would I or II appear first? Identify your selection by its label.
result: II
(II: 4%, I: 0%)
